# tgt: TPP riboswitch RNA
# method_notes: Isothermal titration calorimetry (ITC), ligand titrated into RNA
# Assay type: binding
# condition_description: ITC; read-out: Kd
endpoint: Kd (µM)
Numbers only, in µM.

Nc1ccc2nccnc2c1: 25

Now consider the entry below.
q: Indicate the recorded Kd value for this compound: COC(=O)c1ccc2nccnc2c1
a: 5

* * *

# tgt: TPP riboswitch RNA
# method_notes: Isothermal titration calorimetry (ITC), ligand titrated into RNA
# Type: binding
# condition_description: ITC; fragment 5 analogs, pendant groups, Table 4; read-out: Kd
Threshold-based label: Kd under 800 µM gives satisfied, Kd not under 800 µM gives not satisfied.

Solved entries:
COC(=O)c1ccc(Cl)cc1Cl: satisfied
COC(=O)c1ccc(N)cc1: not satisfied

q: Does the reported Kd of the following compound sit strictly below 800 µM? COC(=O)c1ccc([N+](=O)[O-])cc1
a: satisfied

q: Does the reported Kd of the following compound sit strictly below 800 µM? NC(=O)c1ccc(Cl)cc1
a: not satisfied

q: Does the reported Kd of the following compound sit strictly below 800 µM? CCOc1ccc(C(=O)OC)cc1
a: not satisfied

* * *

# tgt: TPP riboswitch RNA
# method_notes: Isothermal titration calorimetry (ITC), ligand titrated into RNA
# Type: binding
# condition_description: ITC; fragment 5 analogs, pyridine core modifications, Table 3; read-out: Kd
endpoint: Kd (µM)
Answers are plain numbers, in µM.

q: Indicate the recorded Kd value for this compound: c1cc2[nH]cnc2cn1 [Compound 6]
a: 266

* * *

# System: TPP riboswitch RNA
# method_notes: Isothermal titration calorimetry (ITC), ligand titrated into RNA
# Assay type: binding
# condition_description: linked fragments 17 and 31; dissociation constants by ITC
endpoint: Effect of modification on RNA binding affinity (FIG. 5)

c1cnc2cc(CNc3cncc(N4CCNCC4)c3)ccc2n1: negative modification
O=C(CCC(=O)Nc1ccc2nccnc2c1)NO: negative modification
c1cc(N2CCNCC2)c(CNCc2ccc3nccnc3c2)cn1: negative modification

* * *

# tgt: TPP riboswitch RNA
# method_notes: Isothermal titration calorimetry (ITC), ligand titrated into RNA
# Format: binding
# condition_description: ITC; primary-screen hits, Table 1; value ± error; read-out: Kd
Provide the recorded pKd for the entries that follow.
Answers are plain numbers, as −log10 of the molar value.

NCc1ccc(-c2csnn2)cc1: 3.66
c1cc2[nH]cnc2cn1: 3.19
COc1ccc2nsnc2c1: 4.02

For the 4 compounds below, give their pKd values.
1. Nc1ccc2nccnc2c1
2. Cc1ncc(C[n+]2csc(CCOP(=O)([O-])OP(=O)(O)O)c2C)c(N)n1 [Compound 9, thiamine pyrophosphate, reference compound]
3. COC(=O)c1ccc(Cl)nc1
4. C#Cc1ccc2nccnc2c1

a:
1. 4.60
2. 7.54
3. 3.58
4. 4.96

* * *

# tgt: TPP riboswitch RNA
# method_notes: Isothermal titration calorimetry (ITC), ligand titrated into RNA
# Assay type: binding
# condition_description: ITC; fragment 2 analogs, pendant groups, Table 2B; read-out: Kd
endpoint: pKd
Answers are plain numbers, as −log10 of the molar value.

O=Cc1ccc2nccnc2c1: 4.46

For the 2 compounds below, give their pKd values.
1. OCc1ccc2nccnc2c1
2. Cc1ccc2nccnc2c1

a:
[4.74, 4.48]

For the 3 compounds below, give their pKd values.
1. Nc1cnc2ccccc2n1
2. Fc1cccc2nccnc12
3. COC(=O)c1ccc2nccnc2c1

a:
[3.42, 3.66, 4.24]

For the 2 compounds below, give their pKd values.
1. NC(=O)c1cnc2ccccc2n1
2. Nc1cccc2nccnc12

a:
[3.22, 4.12]
